Target system: T1, rat PrRP receptor in RC-4B/C cells (rat, UniProt Q64121 1-370)
T1 construct: whole, on cells; also called the rat receptor; GPR10
T1 sequence (looked up): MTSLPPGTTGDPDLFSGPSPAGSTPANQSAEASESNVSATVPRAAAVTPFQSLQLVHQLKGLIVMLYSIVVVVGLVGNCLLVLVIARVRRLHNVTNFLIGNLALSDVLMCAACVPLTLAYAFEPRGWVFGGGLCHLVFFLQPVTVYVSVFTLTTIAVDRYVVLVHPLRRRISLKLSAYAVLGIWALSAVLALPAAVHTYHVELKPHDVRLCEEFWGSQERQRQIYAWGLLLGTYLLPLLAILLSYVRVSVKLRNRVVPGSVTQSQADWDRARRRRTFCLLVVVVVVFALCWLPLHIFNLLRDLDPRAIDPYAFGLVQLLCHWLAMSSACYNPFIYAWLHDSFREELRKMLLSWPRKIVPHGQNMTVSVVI
Procedure details: competition with 125I-rat PrRP31 on RC-4B/C cells
Where no end group is shown, it is not given here. [ ]: non-standard residue; d: D form. The star is where a group is joined. 1Nal = N[C@@H](Cc1cccc2ccccc12)C(=O)O; Palmitoyl = CCCCCCCCCCCCCCCC(=O)*; Myristoyl = CCCCCCCCCCCCCC(=O)*; PheCl2 = dichlorophenylalanine; Lauroyl = CCCCCCCCCCCC(=O)*; PheNO2 = nitrophenylalanine; Nle = CCCC[C@H](N)C(=O)O; Octanoyl = CCCCCCCC(=O)*
Examples of binders with documented Ki follow.
Value type: Ki (nM)

- Binder: "Octanoyl-SRAHQHS[Nle]ETRTPDINPAWYTGRGIRPVGRF-NH2 [analog no. 15]"
  Uom: "nM"
  Observed result: 0.98
- Binder: "TPDINPAWYASRPFRPVGRF-NH2 [analog no. 44]"
  Uom: "nM"
  Observed result: 2.14
- Binder: "Lauroyl-SRAHQHS[Nle]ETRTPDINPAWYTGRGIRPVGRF-NH2 [analog no. 17]"
  Uom: "nM"
  Observed result: 0.39
- Binder: "SRAHQHS[Nle]ETRTPDINPAWYTGRGIRPVGR[PheCl2]-NH2 [analog no. 24]"
  Uom: "nM"
  Observed result: 3.84
- Binder: "Palmitoyl-SRAHQHS[Nle]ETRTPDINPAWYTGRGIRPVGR[PheNO2]-NH2 [analog no. 29]"
  Uom: "nM"
  Observed result: 0.58
- Binder: "Myristoyl-SRAHQHS[Nle]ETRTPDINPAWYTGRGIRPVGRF-NH2 [analog no. 18]"
  Uom: "nM"
  Observed result: 0.69
- Binder: "SRAHQHS[Nle]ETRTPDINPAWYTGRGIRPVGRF-NH2 [analog no. 14]"
  Uom: "nM"
  Observed result: 1.28
- Binder: "Myristoyl-SRAHQHS[Nle]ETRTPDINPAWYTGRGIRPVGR[1Nal]-NH2 [analog no. 22]"
  Uom: "nM"
  Observed result: 3.96
- Binder: "QHSMETRTPDINPAWYTGRGIRPVGRF-NH2 (shortened PrRP31 analog) [analog no. 48]"
  Uom: "nM"
  Observed result: 2.61

Sourced from patent US9937235B2
